Catalogue of binders with associated Human CP IC50, hemolysis assay, NHS
# assayed target: human C5 (human, UniProt P01031 19-1676)
# experiment: cell-based or functional assay
Expressed in nM, but write only the number.

H4H12171P (antibody, human IgG4, V domains shown, H4H: human IgG4 Fc with S108P hinge mutation) VH: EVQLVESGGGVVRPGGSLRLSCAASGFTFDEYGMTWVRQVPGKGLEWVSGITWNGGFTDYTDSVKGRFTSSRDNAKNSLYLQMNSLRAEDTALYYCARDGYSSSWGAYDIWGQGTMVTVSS VL: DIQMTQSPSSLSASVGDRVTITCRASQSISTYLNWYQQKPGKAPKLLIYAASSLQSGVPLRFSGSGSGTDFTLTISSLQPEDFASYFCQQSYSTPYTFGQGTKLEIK: 2.33
H4H12163P (antibody, human IgG4, V domains shown, H4H: human IgG4 Fc with S108P hinge mutation) VH: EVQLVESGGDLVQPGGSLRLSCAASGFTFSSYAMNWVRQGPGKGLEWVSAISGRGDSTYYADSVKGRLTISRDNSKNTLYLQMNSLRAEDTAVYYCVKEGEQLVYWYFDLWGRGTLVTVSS VL: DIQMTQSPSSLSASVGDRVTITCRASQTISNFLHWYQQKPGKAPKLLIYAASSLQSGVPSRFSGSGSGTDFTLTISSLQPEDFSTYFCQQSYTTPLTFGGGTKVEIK: 2.72
H4H12175P (antibody, human IgG4, V domains shown, H4H: human IgG4 Fc with S108P hinge mutation) VH: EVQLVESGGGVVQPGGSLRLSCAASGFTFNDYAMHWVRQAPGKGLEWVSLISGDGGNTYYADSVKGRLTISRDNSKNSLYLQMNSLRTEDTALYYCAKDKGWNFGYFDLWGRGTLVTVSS VL: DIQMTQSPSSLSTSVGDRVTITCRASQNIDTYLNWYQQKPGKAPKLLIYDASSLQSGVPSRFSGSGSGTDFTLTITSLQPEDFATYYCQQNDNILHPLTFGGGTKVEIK: 2.36
H4H12159P (antibody, human IgG4, V domains shown, H4H: human IgG4 Fc with S108P hinge mutation) VH: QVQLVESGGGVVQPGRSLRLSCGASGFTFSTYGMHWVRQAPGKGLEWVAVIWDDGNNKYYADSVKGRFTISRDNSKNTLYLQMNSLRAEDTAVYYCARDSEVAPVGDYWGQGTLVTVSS VL: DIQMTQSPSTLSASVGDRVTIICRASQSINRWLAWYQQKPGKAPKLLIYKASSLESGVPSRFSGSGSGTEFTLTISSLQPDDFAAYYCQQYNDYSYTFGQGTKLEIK: 2.5

Fill blank: measured Human CP IC50, hemolysis assay, NHS of the binder H4H12170P (antibody, human IgG4, V domains shown, H4H: human IgG4 Fc with S108P hinge mutation) VH: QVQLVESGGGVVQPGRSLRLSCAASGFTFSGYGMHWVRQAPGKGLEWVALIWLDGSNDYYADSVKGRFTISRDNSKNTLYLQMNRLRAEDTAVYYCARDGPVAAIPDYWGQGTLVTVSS VL: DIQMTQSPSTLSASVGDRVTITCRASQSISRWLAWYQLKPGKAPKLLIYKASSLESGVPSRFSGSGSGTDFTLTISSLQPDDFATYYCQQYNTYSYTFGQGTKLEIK is ____. 2.39

What do we get for H4H11686N (antibody, human IgG4, V domains shown, tested with H4H prefix (human IgG4 Fc with S108P hinge mutation); also called H2M11686N) VH: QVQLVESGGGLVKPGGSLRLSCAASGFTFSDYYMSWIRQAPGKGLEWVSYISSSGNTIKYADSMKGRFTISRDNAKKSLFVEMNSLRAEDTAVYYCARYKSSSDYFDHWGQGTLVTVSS VL: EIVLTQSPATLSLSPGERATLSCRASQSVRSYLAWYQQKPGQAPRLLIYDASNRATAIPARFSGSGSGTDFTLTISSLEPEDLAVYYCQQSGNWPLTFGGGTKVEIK ? 3.09

Now consider H4H12169P (antibody, human IgG4, V domains shown, H4H: human IgG4 Fc with S108P hinge mutation) VH: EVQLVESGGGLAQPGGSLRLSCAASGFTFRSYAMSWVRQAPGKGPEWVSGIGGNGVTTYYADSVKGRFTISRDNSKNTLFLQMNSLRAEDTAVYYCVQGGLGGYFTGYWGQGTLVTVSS VL: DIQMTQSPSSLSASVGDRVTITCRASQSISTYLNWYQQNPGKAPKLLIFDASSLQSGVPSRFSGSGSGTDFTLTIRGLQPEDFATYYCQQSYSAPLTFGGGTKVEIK . 2.36
